# method-summary: qHTS assay to identify small molecule agonists of H2AX - cell viability counter screen (AID 1224847); further: nearly all actives have a fitted effect of over 30% in size
# stated-conditions: CHO-K1 viability, CellTiter-Glo luminescence, 3 h; series mostly up to 154 µM
Results filed as inconclusive are left out. The source made the active and inactive calls. The call rests on the fitted dose curve.
Your response should consist of one outcome taken from active, inactive

Worked examples follow.
{"columns": ["compound", "class-assignment"],
 "data": [
  ["COC[C@H](C)N(C(=O)CCl)c1c(C)csc1C", "inactive"],
  ["CCCCCCCCCCCCCC[P+](CCCCCC)(CCCCCC)CCCCCC (tested in a mixture with another compound)", "active"]
]}

Ask | Entry O=C(Cl)c1ccc(Cl)cc1 : call = ?
Reply | inactive

Ask | Try N#C/C=C/c1ccccc1 next.
Reply | inactive

Ask | Here is the next compound: O=[N+]([O-])c1cc([N+](=O)[O-])c2ccccc2c1
Reply | inactive

Ask | What do you get for CCCCCCCCCC[N+](C)(C)CCCCCCCCCC ?
Reply | active

Ask | Would you kindly repeat that for O=C1NCN(c2ccccc2)C12CCN(CC1COc3ccccc3O1)CC2 (centres undefined) ?
Reply | inactive

Ask | Record: CC(C)CC(C)Nc1ccc(Nc2ccccc2)cc1 (centres undefined)
Reply | active

Ask | Same thing, different compound: C=CC(=O)N(C)C
Reply | inactive

Ask | Param item: CC(C)OS(C)(=O)=O
Reply | inactive

====

Recorded measurements of Potency, one per entry
# method-summary: qHTS assay to identify aromatase inhibitors - cell viability counter screen (AID 743084);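 further: cells stimulated with testosterone during compound exposure; potency means the concentration at half of the fitted maximal effect; nearly all actives have a fitted effect of over 55% in size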
# stated-conditions: MCF-7 aro ERE viability, CellTiter-Fluor, 24 h; series mostly up to 70.3 µM
Results filed as inconclusive are left out. Calls of active or inactive are those of the source. Calls follow the shape of the dose curve; as a rule, active = well fitted cell-killing curve with a large enough effect in the repeat runs; inconclusive = weak or mixed curves, or effect the other way; inactive = no such curve, though single readings can be large or run the other way.

{"columns": ["molecule", "reading"],
 "data": [
  ["C[C@@H]1CC[C@@]2(OC1)O[C@H]1[C@@H](O)[C@H]3[C@@H]4CC[C@H]5C[C@@H](O[C@@H]6O[C@H](CO)[C@H](O[C@@H]7O[C@H](CO)[C@@H](O)[C@H](O[C@@H]8OC[C@@H](O)[C@H](O)[C@H]8O)[C@H]7O[C@@H]7O[C@H](CO)[C@@H](O)[C@H](O[C@@H]8O[C@H](CO)[C@@H](O)[C@H](O)[C@H]8O)[C@H]7O)[C@H](O)[C@H]6O)[C@H](O)C[C@]5(C)[C@H]4CC[C@]3(C)[C@H]1[C@@H]2C", "2.9 µM (active)"]
]}

We now examine a further molecule.
Ask | Record request: Potency value, item [Hg+2].[I-].[I-]
Reply | 6.86 µM (active)

====

# method-summary: qHTS assay to identify small molecule agonists of the NFkB signaling pathway - cell viability counter screen (AID 1159515); further: nearly all actives have a fitted effect of over 55% in size
# stated-conditions: NFkB-bla ME-180 viability, CellTiter-Glo luminescence, 5 h; series mostly up to 61 µM
Inconclusive results are not listed. Active and inactive are the calls of the source. The call rests on the fitted dose curve.
# valid calls are active, inactive; nothing else

{"columns": ["molecule", "class-assignment"],
 "data": [
  ["CCCCOCN(C(=O)CCl)c1c(CC)cccc1CC", "inactive"],
  ["Cc1ccc(OP(=O)(Oc2ccccc2)Oc2ccccc2)cc1", "inactive"]
]}

Ask | Just curious, what result did O=[N+]([O-])O.O=[N+]([O-])O.[Cd] get here?
Reply | inactive
